target: KRAS-G12D (Homo sapiens, UniProt P01116, G12D); construct: endogenous in cells; host or cells: A-427 (ATCC), AGS, AsPc-1, Panc 04.03; test: KRAS-G12D degradation assay (Western Blot), AsPc-1 cells; type: cell-based; conditions: ASPC1, 24 h
Sequence (P01116 1-188 isoform P01116-2 G12D): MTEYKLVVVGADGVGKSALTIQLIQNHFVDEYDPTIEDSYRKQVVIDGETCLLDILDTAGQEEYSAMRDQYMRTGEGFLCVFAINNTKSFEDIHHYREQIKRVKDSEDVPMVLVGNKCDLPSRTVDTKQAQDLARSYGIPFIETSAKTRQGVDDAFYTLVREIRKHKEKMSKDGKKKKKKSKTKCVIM
READOUT_NAME: Dmax (%)

STRUCTURE_SMILES_STRING	READOUT_NAME	READING_UNIT	OBSERVED_MEASUREMENT
C#Cc1c(F)ccc2cc(O)cc(-c3ncc4c(N5CC6CCC(C5)N6)nc(OC[C@H](O)CN5CCN(CC6CCC7(CC6)CCN(C(=O)c6ccc(OC)c(N8CCC(=O)NC8=O)c6)CC7)CC5)nc4c3F)c12	Dmax	%	81.9
COc1ccc(C(=O)N2CCC3(CCC(CN4CCN(CC5(COc6nc(N7CC8CCC(C7)N8)c7cnc(-c8cc(O)cc(Cl)c8C8CC8)c(F)c7n6)CC5)CC4)CC3)CC2)cc1N1CCC(=O)NC1=O	Dmax	%	69
C#Cc1c(F)ccc2cc(O)cc(-c3ncc4c(N5CC6CCC(C5)N6)nc(OC[C@H](C)CN5CCN(CC6CCC7(CC6)CCN(C(=O)c6ccc(OC)c(N8CCC(=O)NC8=O)c6)CC7)CC5)nc4c3F)c12	Dmax	%	100
CCc1cccc2cc(O)cc(-c3ncc4c(N5CC6CCC(C5)N6)nc(OCC5(CN6CCN(CC7CCC8(CC7)CCN(C(=O)c7ccc(Cl)c(N9CCC(=O)NC9=O)c7)CC8)CC6)CC5)nc4c3F)c12	Dmax	%	100
[2H]C([2H])([2H])c1ccc(C(=O)N2CCC3(CCC(CN4CCN(C[C@@H](C)COc5nc(N6CC7CCC(C6)N7)c6cnc(-c7cc(O)cc8ccc(F)c(C#C)c78)c(F)c6n5)CC4)CC3)CC2)cc1N1CCC(=O)NC1=O	Dmax	%	98.8
